# Test system: BGM cell line
# protocol.conditions: BGM cells, 24 h, MTT, mean of 3-5 experiments
measured.property: MDL50 (minimum lethal dose for 50% of cells), mean ± SD

## Input Please tell me the measured MDL50 (minimum lethal dose for 50% of cells), mean ± SD for Cc1cc2nc3c(=O)[nH]c(=O)nc-3n(C[C@H](O)[C@H](O)[C@H](O)CO)c2cc1C ; system: BGM cell line.
## Output ≥ 1000 µg/mL

## Input Please tell me the measured MDL50 (minimum lethal dose for 50% of cells), mean ± SD for CC1=C(/C=C/C(C)=C/C=C/C(C)=C/C=C/C=C(C)/C=C/C=C(C)/C=C/C2=C(C)CCCC2(C)C)C(C)(C)CCC1 ; system: BGM cell line.
## Output ≥ 1000 µg/mL

## Input Please tell me the measured MDL50 (minimum lethal dose for 50% of cells), mean ± SD for O=c1c(-c2ccc(O)cc2)coc2cc(O)cc(O)c12 ; system: BGM cell line.
## Output ≥ 1000 µg/mL

## Input Please tell me the measured MDL50 (minimum lethal dose for 50% of cells), mean ± SD for [O]=[Zn] [Zinc oxide] ; system: BGM cell line.
## Output ≥ 1000 µg/mL

## Input Please tell me the measured MDL50 (minimum lethal dose for 50% of cells), mean ± SD for CC(=O)Oc1c(C)c(C)c2c(c1C)CCC(C)(CCC[C@H](C)CCC[C@H](C)CCCC(C)C)O2 (stereo partly shown) [Tocopherol acetate] ; system: BGM cell line.
## Output ≥ 1000 µg/mL

## Input Please tell me the measured MDL50 (minimum lethal dose for 50% of cells), mean ± SD for COc1ccc([C@@H]2CC(=O)c3c(O)cc(O[C@@H]4O[C@H](CO[C@@H]5O[C@@H](C)[C@H](O)[C@@H](O)[C@H]5O)[C@@H](O)[C@H](O)[C@H]4O)cc3O2)cc1O ; system: BGM cell line.
## Output ≥ 1000 µg/mL

## Input Please tell me the measured MDL50 (minimum lethal dose for 50% of cells), mean ± SD for O=c1c(O)c(-c2ccc(O)c(O)c2)oc2cc(O)cc(O)c12 ; system: BGM cell line.
## Output ≥ 1000 µg/mL
